Recorded pIC50 by entry
# Tested on: 885512-296-R-J2-PDC complex spheroid viability;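 also: spheroids exposed to agents for 7 days before viability read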
# test_details: Anticancer human tumor 885512-296-R-J2-PDC patient-derived breast carcinoma cell line growth inhibition
# test_conditions: curve of first compound; second compound 3.16 µM
pIC50: −log10 of the molar value.

- compound: "Nc1ccccc1NC(=O)c1ccc(CNC(=O)OCc2cccnc2)cc1 + NC1CC1c1ccc(-c2cccc(O)c2)cc1"
  qualifying_sign: "="
  pIC50: 7.37
- compound: "CC1(C)CCC(CN2CCN(c3ccc(C(=O)NS(=O)(=O)c4ccc(NCC5CCOCC5)c([N+](=O)[O-])c4)c(Oc4cnc5[nH]ccc5c4)c3)CC2)=C(c2ccc(Cl)cc2)C1 + NC1CC1c1ccc(-c2cccc(O)c2)cc1"
  qualifying_sign: "="
  pIC50: 5.82
- compound: "O=C(C=Cn1cnc(-c2cc(C(F)(F)F)cc(C(F)(F)F)c2)n1)NNc1cnccn1 + NC1CCC(NC2CC2c2ccccc2)CC1"
  qualifying_sign: ">"
  pIC50: 8.50
- compound: "CC1COCCN1c1cc(-c2ccnn2C)c2ccnc(-c3ccn[nH]3)c2n1 (configuration not stated) + NC1CC1c1ccc(-c2cccc(O)c2)cc1"
  qualifying_sign: ">"
  pIC50: 8.50
- compound: "CC[C@@]1(O)C(=O)OCc2c1cc1n(c2=O)Cc2cc3c(CN(C)C)c(O)ccc3nc2-1 + NC1CCC(NC2CC2c2ccccc2)CC1"
  qualifying_sign: "="
  pIC50: 9.30
- compound: "CC(C)CC(NC(=O)C(Cc1ccccc1)NC(=O)c1cnccn1)B(O)O (configuration not stated) + NC1CC1c1ccc(-c2cccc(O)c2)cc1"
  qualifying_sign: ">"
  pIC50: 9.50
- compound: "Cn1ncnc1C1c2n[nH]c(=O)c3cc(F)cc(c23)NC1c1ccc(F)cc1 (configuration not stated) + NC1CC1c1ccc(-c2cccc(O)c2)cc1"
  qualifying_sign: "="
  pIC50: 7.55
